The reader will find reported Vd values listed item by item below.
experiment: single-dose pharmacokinetics in beagle dogs; conditions: male, dog, in vivo, iv; beagle dogs, single i.v. 1.4 mg/kg, 10-min slow bolus; read-out: V (volume of distribution)
*1 amine or outer side, *2 acyl side, *3 side chain or, on linkers, in order; H or OH if unused. Where a SMILES comes first, the peptide text is derived from it. Bridges are numbered along the chain shown (N, C = ends). [ ]: non-standard residue; d: D form. The star is where a group is joined. Orn(4R-OH,5R-OCH2CH2NMe3+) = C[N+](C)(C)CCO[C@@H](N[*:3])[C@H](O)C[C@H](N[*:1])C(=O)[*:2]; pTerphenylCO(4''-OnC5H11) = CCCCCOc1ccc(-c2ccc(-c3ccc(C(=O)*)cc3)cc2)cc1; Orn(4R-OH,5R-OH) = O=C([C@H](C[C@@H](O)[C@@H](O)N[*:3])N[*:1])[*:2]; hTyr(3S-OH,4S-OH) = N[C@H](C(=O)O)[C@H](O)[C@@H](O)c1ccc(O)cc1; Pro(3S-OH,4S-Me) = C[C@H]1CN[C@H](C(=O)O)[C@H]1O; Hyp = O=C(O)[C@@H]1C[C@@H](O)CN1
State just the number; it will be interpreted in L/kg.

CCCCCOc1ccc(-c2ccc(-c3ccc(C(=O)N[C@H]4C[C@@H](O)[C@@H](OCC[N+](C)(C)C)NC(=O)[C@@H]5[C@@H](O)[C@@H](C)CN5C(=O)[C@H]([C@@H](C)O)NC(=O)[C@H]([C@H](O)[C@@H](O)c5ccc(O)cc5)NC(=O)[C@@H]5C[C@@H](O)CN5C(=O)[C@H]([C@@H](C)O)NC4=O)cc3)cc2)cc1 [CD101] ({pTerphenylCO(4''-OnC5H11)}-[Orn(4R-OH,5R-OCH2CH2NMe3+)]T[Hyp][hTyr(3S-OH,4S-OH)]T[Pro(3S-OH,4S-Me)]; lactam 1-C) :: 1.36

Now look at this one.
Data request: Find the recorded Vd belonging to CCCCCOc1ccc(-c2ccc(-c3ccc(C(=O)N[C@H]4C[C@@H](O)[C@@H](O)NC(=O)[C@@H]5[C@@H](O)[C@@H](C)CN5C(=O)[C@H]([C@@H](C)O)NC(=O)[C@H]([C@H](O)[C@@H](O)c5ccc(O)cc5)NC(=O)[C@@H]5C[C@@H](O)CN5C(=O)[C@H]([C@@H](C)O)NC4=O)cc3)cc2)cc1 [Anidulafungin, anidulafungin] ({pTerphenylCO(4''-OnC5H11)}-[Orn(4R-OH,5R-OH)]T[Hyp][hTyr(3S-OH,4S-OH)]T[Pro(3S-OH,4S-Me)]; lactam 1-C) and report it.
Data returned: 0.779

###

experiment: single-dose pharmacokinetics in beagle dogs; details: male, beagle, dog, in vivo, iv, 1.4 mg/kg
TEST READOUT: Vd (L/kg)
Please give a number only; it is taken to be in L/kg.

CCCCCOc1ccc(-c2ccc(-c3ccc(C(=O)N[C@H]4C[C@@H](O)[C@@H](OCCOCCOC)NC(=O)[C@@H]5[C@@H](O)[C@@H](C)CN5C(=O)[C@H]([C@@H](C)O)NC(=O)[C@H]([C@H](O)[C@@H](O)c5ccc(O)cc5)NC(=O)[C@@H]5C[C@@H](O)CN5C(=O)[C@H]([C@@H](C)O)NC4=O)cc3)cc2)cc1 [Compound 2] :: 0.331

Data request: Given CCCCCOc1ccc(-c2ccc(-c3ccc(C(=O)N[C@H]4C[C@@H](O)[C@@H](OCCOCCN)NC(=O)[C@@H]5[C@@H](O)[C@@H](C)CN5C(=O)[C@H]([C@@H](C)O)NC(=O)[C@H]([C@H](O)[C@@H](O)c5ccc(O)cc5)NC(=O)[C@@H]5C[C@@H](O)CN5C(=O)[C@H]([C@@H](C)O)NC4=O)cc3)cc2)cc1 [Compound 3] , state its recorded Vd.
Data returned: 0.627

###

tested on: Candida parapsilosis ATCC 22019; test: CLSI broth microdilution (M27-A3) MIC; format: cell-based; conditions: Lodderomyces parapsilosis, ATCC22019; 24 h, 50% reduction in growth
*1 amine or outer side, *2 acyl side, *3 side chain or, on linkers, in order; H or OH if unused. Where a SMILES comes first, the peptide text is derived from it. Bridges are numbered along the chain shown (N, C = ends). [ ]: non-standard residue; d: D form. The star is where a group is joined. Orn(4R-OH,5R-OCH2CH2NMe3+) = C[N+](C)(C)CCO[C@@H](N[*:3])[C@H](O)C[C@H](N[*:1])C(=O)[*:2]; pTerphenylCO(4''-OnC5H11) = CCCCCOc1ccc(-c2ccc(-c3ccc(C(=O)*)cc3)cc2)cc1; Orn(4R-OH,5R-OH) = O=C([C@H](C[C@@H](O)[C@@H](O)N[*:3])N[*:1])[*:2]; hTyr(3S-OH,4S-OH) = N[C@H](C(=O)O)[C@H](O)[C@@H](O)c1ccc(O)cc1; Pro(3S-OH,4S-Me) = C[C@H]1CN[C@H](C(=O)O)[C@H]1O; Hyp = O=C(O)[C@@H]1C[C@@H](O)CN1
TEST READOUT: MIC (µg/mL)
Kindly provide the numeric value in µg/mL only, without the unit symbol.

Data request: Which MIC is reported for this molecule? CCCCCOc1ccc(-c2ccc(-c3ccc(C(=O)N[C@H]4C[C@@H](O)[C@@H](OCC[N+](C)(C)C)NC(=O)[C@@H]5[C@@H](O)[C@@H](C)CN5C(=O)[C@H]([C@@H](C)O)NC(=O)[C@H]([C@H](O)[C@@H](O)c5ccc(O)cc5)NC(=O)[C@@H]5C[C@@H](O)CN5C(=O)[C@H]([C@@H](C)O)NC4=O)cc3)cc2)cc1 [CD101] ({pTerphenylCO(4''-OnC5H11)}-[Orn(4R-OH,5R-OCH2CH2NMe3+)]T[Hyp][hTyr(3S-OH,4S-OH)]T[Pro(3S-OH,4S-Me)]; lactam 1-C)
Data returned: 0.5

Data request: Try CCCCCOc1ccc(-c2ccc(-c3ccc(C(=O)N[C@H]4C[C@@H](O)[C@@H](O)NC(=O)[C@@H]5[C@@H](O)[C@@H](C)CN5C(=O)[C@H]([C@@H](C)O)NC(=O)[C@H]([C@H](O)[C@@H](O)c5ccc(O)cc5)NC(=O)[C@@H]5C[C@@H](O)CN5C(=O)[C@H]([C@@H](C)O)NC4=O)cc3)cc2)cc1 [Anidulafungin, anidulafungin] ({pTerphenylCO(4''-OnC5H11)}-[Orn(4R-OH,5R-OH)]T[Hyp][hTyr(3S-OH,4S-OH)]T[Pro(3S-OH,4S-Me)]; lactam 1-C) next.
Data returned: 0.5

Data request: Next molecule up: "CC[C@H](C)C[C@H](C)CCCCCCCCC(=O)N[C@H]1C[C@@H](O)[C@@H](NCCN)NC(=O)[C@@H]2[C@@H](O)CCN2C(=O)[C@H]([C@H](O)CCN)NC(=O)[C@H]([C@H](O)[C@@H](O)c2ccc(O)cc2)NC(=O)[C@@H]2C[C@@H](O)CN2C(=O)[C@H]([C@@H](C)O)NC1=O"
Data returned: 0.25

Data request: What about this molecule? "C[C@@H]1[C@H](O)[C@@H](C)/C=C/C=C/C=C/C=C/C=C/C=C/C=C/[C@H](O[C@@H]2O[C@H](C)[C@@H](O)[C@H](N)[C@@H]2O)C[C@@H]2O[C@](O)(C[C@@H](O)C[C@@H](O)[C@H](O)CC[C@@H](O)C[C@@H](O)CC(=O)O[C@H]1C)C[C@H](O)[C@H]2C(=O)O"
Data returned: 0.25

Data request: Further, for "CCCCCOc1ccc(-c2ccc(-c3ccc(C(=O)N[C@H]4C[C@@H](O)[C@@H](NCC[N+](C)(C)C)NC(=O)[C@@H]5[C@@H](O)[C@@H](C)CN5C(=O)[C@H]([C@@H](C)O)NC(=O)[C@H]([C@H](O)[C@@H](O)c5ccc(O)cc5)NC(=O)[C@@H]5C[C@@H](O)CN5C(=O)[C@H]([C@@H](C)O)NC4=O)cc3)cc2)cc1" ?
Data returned: 0.25

###

This listing pairs molecules with measured MEC.
system: Aspergillus flavus ATCC 22546; assay: CLSI broth microdilution (M38-A2) MEC/MIC; type: cell-based; conditions: 48 h, stunted hyphal growth
*1 amine or outer side, *2 acyl side, *3 side chain or, on linkers, in order; H or OH if unused. Where a SMILES comes first, the peptide text is derived from it. Bridges are numbered along the chain shown (N, C = ends). [ ]: non-standard residue; d: D form. The star is where a group is joined. Orn(4R-OH,5R-OCH2CH2NMe3+) = C[N+](C)(C)CCO[C@@H](N[*:3])[C@H](O)C[C@H](N[*:1])C(=O)[*:2]; pTerphenylCO(4''-OnC5H11) = CCCCCOc1ccc(-c2ccc(-c3ccc(C(=O)*)cc3)cc2)cc1; Orn(4R-OH,5R-OH) = O=C([C@H](C[C@@H](O)[C@@H](O)N[*:3])N[*:1])[*:2]; hTyr(3S-OH,4S-OH) = N[C@H](C(=O)O)[C@H](O)[C@@H](O)c1ccc(O)cc1; Pro(3S-OH,4S-Me) = C[C@H]1CN[C@H](C(=O)O)[C@H]1O; Hyp = O=C(O)[C@@H]1C[C@@H](O)CN1

Worked cases, answers included:
CCCCCOc1ccc(-c2ccc(-c3ccc(C(=O)N[C@H]4C[C@@H](O)[C@@H](O)NC(=O)[C@@H]5[C@@H](O)[C@@H](C)CN5C(=O)[C@H]([C@@H](C)O)NC(=O)[C@H]([C@H](O)[C@@H](O)c5ccc(O)cc5)NC(=O)[C@@H]5C[C@@H](O)CN5C(=O)[C@H]([C@@H](C)O)NC4=O)cc3)cc2)cc1 [Anidulafungin, anidulafungin] ({pTerphenylCO(4''-OnC5H11)}-[Orn(4R-OH,5R-OH)]T[Hyp][hTyr(3S-OH,4S-OH)]T[Pro(3S-OH,4S-Me)]; lactam 1-C) :: ≤0.015 µg/mL
CC[C@H](C)C[C@H](C)CCCCCCCCC(=O)N[C@H]1C[C@@H](O)[C@@H](NCCN)NC(=O)[C@@H]2[C@@H](O)CCN2C(=O)[C@H]([C@H](O)CCN)NC(=O)[C@H]([C@H](O)[C@@H](O)c2ccc(O)cc2)NC(=O)[C@@H]2C[C@@H](O)CN2C(=O)[C@H]([C@@H](C)O)NC1=O :: 0.06 µg/mL
CCCCCOc1ccc(-c2ccc(-c3ccc(C(=O)N[C@H]4C[C@@H](O)[C@@H](NCC[N+](C)(C)C)NC(=O)[C@@H]5[C@@H](O)[C@@H](C)CN5C(=O)[C@H]([C@@H](C)O)NC(=O)[C@H]([C@H](O)[C@@H](O)c5ccc(O)cc5)NC(=O)[C@@H]5C[C@@H](O)CN5C(=O)[C@H]([C@@H](C)O)NC4=O)cc3)cc2)cc1 :: ≤0.015 µg/mL

Data request: Data request, read-out MEC, for CCCCCOc1ccc(-c2ccc(-c3ccc(C(=O)N[C@H]4C[C@@H](O)[C@@H](OCC[N+](C)(C)C)NC(=O)[C@@H]5[C@@H](O)[C@@H](C)CN5C(=O)[C@H]([C@@H](C)O)NC(=O)[C@H]([C@H](O)[C@@H](O)c5ccc(O)cc5)NC(=O)[C@@H]5C[C@@H](O)CN5C(=O)[C@H]([C@@H](C)O)NC4=O)cc3)cc2)cc1 [CD101] ({pTerphenylCO(4''-OnC5H11)}-[Orn(4R-OH,5R-OCH2CH2NMe3+)]T[Hyp][hTyr(3S-OH,4S-OH)]T[Pro(3S-OH,4S-Me)]; lactam 1-C)
Data returned: ≤0.015 µg/mL

// provenance: paper PMC5278707
